Can you tell me β3/BSA Ratio for the items I'm about to list?
Assayed target: T1, GST-β3cyto (GST fusion protein of the β3 integrin cytoplasmic domain) (UniProt P05106 742-788)
T1 construct: domain: cytoplasmic domain; Recombinant GST fusion coated on microtiter wells; also called β3-GST; β3 cytoplasmic domain fusion protein; not shown: glutathione S-transferase (GST) fusion partner
T1 sequence (P05106 742-788): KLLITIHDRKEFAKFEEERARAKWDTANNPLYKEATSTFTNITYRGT
Test details: phage binding, colonies from β3-GST wells / BSA wells
Ends that are not written are not given here.
Please reply with the bare figure in ratio and do not write the unit itself.

Q: Supply measured β3/BSA Ratio of CLRQSYSYNC (cysteine pairing not given here; also: displayed on phage, whole phage tested) [phage displaying CLRQSYSYNC (SEQ ID NO:104)] in your reply.
A: 3.2

Q: Read the entry KVSWYLDNG (whole phage tested) [phage displaying KVSWYLDNG (SEQ ID NO:99)] and write its reported β3/BSA Ratio.
A: 20

Q: Complete the entry with β3/BSA Ratio for YDWWYPWSW (whole phage tested) [phage displaying YDWWYPWSW (SEQ ID NO:95)]
A: 163

Q: Please report β3/BSA Ratio for the following binder: GLDTYRGSP (whole phage tested) [phage displaying GLDTYRGSP (SEQ ID NO:96)]
A: 48

Q: Return β3/BSA Ratio for the following binder: SDNRYIGSW (whole phage tested) [phage displaying SDNRYIGSW (SEQ ID NO:97)]
A: 32

Q: Return β3/BSA Ratio (reported value) for this binder: CNLSSEQC (cysteine pairing not given here; also: displayed on phage, whole phage tested) [phage displaying CNLSSEQC (SEQ ID NO:103)]
A: 62

Q: Note down β3/BSA Ratio recorded for CEQRQTQEGC (cysteine pairing not given here; also: displayed on phage, whole phage tested) [phage displaying CEQRQTQEGC (SEQ ID NO:93)]
A: 14

Q: Supply recorded β3/BSA Ratio for CARLEVLLPC (cysteine pairing not given here; also: displayed on phage, whole phage tested) [phage displaying CARLEVLLPC (SEQ ID NO:94)] here.
A: 18.7
